B1: LINE1-mini (parent)
chain: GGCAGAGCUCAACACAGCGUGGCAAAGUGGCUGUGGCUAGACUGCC

Variants of: B1
Assay: self-cleavage, relative activity (ratio to wild type); higher = more cleavage; in vitro, sequencing; the parent is a self-cleaving ribozyme
Note that class boundaries on self-cleavage are low = under 0.05, moderate = from 0.05 up to 0.2, high = 0.2 and over

**Query** Place this variant in its band: C8A G22C
**Result** moderate

**Query** Place this variant in its band: A24C U43A
**Result** low

**Query** Please indicate the class for C15G C23A based on its self-cleavage.
**Result** moderate

**Query** Quick check: band for C23A A41U
**Result** high

**Query** Hey, which category is A26G U32G in, do you know?
**Result** moderate

**Query** Where would A24U C46G land among the classes by reported self-cleavage?
**Result** high

**Query** Could you tell me which band A12U G36C belongs to?
**Result** low

**Query** Which self-cleavage band matches U34A C46U ?
**Result** moderate

**Query** The entry to classify is A6C A26U ; which class holds it?
**Result** high

**Query** Record U32G U43A — which class?
**Result** low

Values were extracted from the RNAGym collection of RNA variant scans (doi:10.7554/elife.90254).
